Value source: patent US20110287023A1

# subjectOfTest: recombinant HMG1 produced in E. coli as a calmodulin binding protein (CBP) fusion (human)
# Sequence (P09429 whole entry, the tested form may be a part): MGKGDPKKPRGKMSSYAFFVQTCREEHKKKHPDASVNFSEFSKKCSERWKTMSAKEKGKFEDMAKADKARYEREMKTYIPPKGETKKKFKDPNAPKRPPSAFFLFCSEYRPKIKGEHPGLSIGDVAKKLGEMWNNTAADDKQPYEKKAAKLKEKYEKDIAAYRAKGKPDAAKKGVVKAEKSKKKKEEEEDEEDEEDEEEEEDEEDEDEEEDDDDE
# procedureText: cell-based or functional assay
Property: IC50 IL-6; scope: individual binders
Please respond with the number in pM and leave the unit unwritten.

Below, each entry is followed by its recorded IC50 IL-6 result.
[[record]]
binder = "human anti-HMG1 antibody S14 (antibody, IgG1, V domains shown, full length IgG1 made from a human Fab phage clone) VH: EVQLLESGGGLVQPGGSLRLSCAASGFTFSWYETGWVRQAPGKGLEWVSGISPSGGYTQYADSVKGRFTISRDNSKNTLYLQMNSLRAEDTAVYYCARSGVGATKIFDYWGQGTLVTVSS VL: DIQMTQSPSSLSASVGDRVTIICRANERINTYLNWYQQKPGKAPKLLISGTSSLESGVPSRFSGSGSGTEFTLSISSLQPEDFASYYCQQSYSSPYTFGQGTNLEIR"
recordedvalue = 191

[[record]]
binder = "human anti-HMG1 antibody G34 (antibody, IgG1, V domains shown, full length IgG1 made from a human Fab phage clone) VH: EVQLLESGGGLVQPGGSLRLSCAASGFTFSHYMMGWVRQAPGKGLEWVSRISPSGGGTVYADSVKGRFTISRDNSKNTLYLQMNSLRAEDTAVYYCARGGNWNYISYYYYYLDVWGKGTTVTVSS VL: DIQMTQSPSSLSASVGDRVAITCRASQSIDTYLNWYQQKPGKAPKLLIYAASKLEDGVPSRFSGSGTGTDFTLTIRSLQPEDFASYFCQQSYSSPGITFGPGTKVEIK"
recordedvalue = 858

[[record]]
binder = "human anti-HMG1 antibody G20 (antibody, IgG1, V domains shown, full length IgG1 made from a human Fab phage clone) VH: EVQLLESGGGLVQPGGSLRLSCAASGFTFSWYDMFWVRQAPGKGLEWVSWISPSGGYTKYADSVKGRFTISRDNSKNTLYLQMNSLRAEDTAMYYCARSGLDYYDSSGYLDAFDIWGQGTMVTVSS VL: DIQMTQSPSSVSASVGDRVTITCRASQDVSIWLAWYQQKPGKAPKLLIFGASRLQSGVPSRFSGSRSGADFTLTIDSVQPEDFASYYCQQADSFPLTFGGGTKVEIK"
recordedvalue = 652

[[record]]
binder = "human anti-HMG1 antibody G2 (antibody, IgG1, V domains shown, full length IgG1 made from a human Fab phage clone) VH: EVQLLESGGGLVQPGGSLRLSCAASGFTFSWYKMQWVRQAPGKGLEWVSGISPSGGSTAYADSVKGRFTISRDNSKNTLYLQMNSLRAEDTAVYYCAKMGLFNTGNSYVDYWGQGTLVTVSS VL: AQSELTQPPSVSEAPGQRVTISCSGSTSNIGNNAVIWYQQLPGKAPKLLIYYDDLLPSGVSDRFSGSKSGTSGSLAISGLQSEDEADYYCASWDDNLNGPLFGGGTKLTVL"
recordedvalue = 994

[[record]]
binder = "human anti-HMG1 antibody S17 (antibody, IgG1, V domains shown, full length IgG1 made from a human Fab phage clone) VH: EVQLLESGGGLVQPGGSLRLSCAASGFTFSYYDMHWVRQAPGKGLEWVSRISPSGGYTWYADSVKGRFTISRDNSKNTLYLQMNSLRAEDTAVYYCTRGRYTSGWHEYFDPWGQGTLVTVSS VL: DIQMTQSPSSLSASVGDRVTITCRASQSIGTYLNWYQQKPGTAPKVLIYAASSLQSGVPSRFSGSGSGTDFTLTISSLQPEDFSTYYCQQSYNTPRTFGQGTKLEIK"
recordedvalue = 162

[[record]]
binder = "human anti-HMG1 antibody G35 (antibody, IgG1, V domains shown, full length IgG1 made from a human Fab phage clone) VH: EVQLLESGGGLVQPGGSLRLSCAASGFTFSWYKMVWVRQAPGKGLEWVSSIVPSGGITIYADSVKGRFTISRDNSKNTLYLQMNSLRAEDTAVYYCARVQQWLGRPYFDYWGQGTLVTVSS VL: DIQMTQSPLSLPVTPGEPASISCRSSQSLLHGNGYNYLDWYLQRPGQSPQLLIYSGSNRASGVPDRFSGSGSGTDFTLKISRVEAEDVGVYYCMQSLQSRTFGQGTKVEIK"
recordedvalue = 564

[[record]]
binder = "human anti-HMG1 antibody G12 (antibody, IgG1, V domains shown, full length IgG1 made from a human Fab phage clone) VH: EVQLLESGGGLVQPGGSLRLSCAASGFTFSYYMMTWVRQAPGKGLEWVSSISPSGGYTIYADSAKGRFTISRDNSKNTLYLQMNSLRAEDTAVYYCARALSTGSFWDYWGQGTLVTVSS VL: DIQMTQSPGTLSLSPGERATLSCRASESLTSTYVAWYQHKPGQAPRLLIHGGSTRATGIPVRFSGSGSGTDFTLTIATLEPEDFAVYYCQQYGSSPYTFGQGTKLEIK"
recordedvalue = 1120

[[record]]
binder = "human anti-HMG1 antibody S16 (antibody, IgG1, V domains shown, full length IgG1 made from a human Fab phage clone; also called ATCC PTA-6259) VH: EVQLLESGGGLVQPGGSLRLSCAASGFTFSWYSMLWVRQAPGKGLEWVSYISPSGGFTNYADSVKGRFTISRDNSKNTLYLQMNSLRAEDTAVYYCARWDYNSGWYYDHWGQGTLVTVSS VL: DIQMTQSPDTLSLSPGERATLSCRASQSVNSRNLAWYQQKPGQAPRLLIYGASTRATGIPDRFSGSVSGTEFTLTISSLQPDDFATYYCQQYNSYFTFGQGTKLEIK"
recordedvalue = 560

[[record]]
binder = "human anti-HMG1 antibody S12 (antibody, IgG1, V domains shown, full length IgG1 made from a human Fab phage clone) VH: EVQLLESGGGLVQPGGSLRLSCAASGFTFSKYIMHWVRQAPGKGLEWVSGIVPSGGLTEYADSVKGRFTISRDNSKNTLYLQMNSLRAEDTATYYCAKEIFGQFDYWGQGTLVTVSS VL: AQSALTQPPSVSAAPRQRVTISCSGSTSNIGNNAVTWYQYFPGKAPKLLIYSDNQRPSGVPDRFSGSKSGTSASLAITGLQAEDEADYYCQSYDRGLSVVFGGGTKLTVL"
recordedvalue = 1670


Kindly review the next binder as well.
Short answer for human anti-HMG1 antibody G9 (antibody, IgG1, V domains shown, full length IgG1 made from a human Fab phage clone) VH: EVQLLESGGGLVQPGGSLRLSCAASGFTFSSYDMFWVRQAPGKGLEWVSRISPSGGYTYYADSVKGRFTISRDNSKNTLYLQMNSLRAEDTAVYYCARLRYFDSRGYAFDIWGQGTMVTVSS VL: DIQMTQSPGTLSLSPGERATLSCRASQSVRSSYLAWYQQKPGQAPRLLIYGASTRATGIPDRFSGSGSGTDFTLTISRLEPEDFAVYYCQQYGTSRWTFGQGTKVEIK : IC50 IL-6 was 246
